# measured_target: DNA polymerase beta (Homo sapiens)
# protocol_details: qHTS Assay for Inhibitors of DNA Polymerase Beta; note: potency is the fitted concentration of half-maximal effect
# condition_parameters: Pol beta primer extension/strand displacement, fluorescence kinetic; series mostly up to 114 µM
# Experimental: The base excision repair system in human cells is a target for therapeutic modulation of the response to irradiation treatment and DNA-damaging drugs. […] A stepwise description of the 1536-well assay is shown in next Table. […] The plates were incubated for 15 min at room temperature, and 1 uL substrate (50 nM final concentration) were added to start the reaction and immediately read at 0 min read on Viewlux reader. […]
About 4,500 (1.3%) of roughly 340,000 compounds were called active. Not shown: some 5% with an inconclusive outcome. This is one part of a sample in which actives are shown more often than they occur.
assay_readout: Potency

>>> readout_value("Cc1ccccc1CNC(=O)c1cccc(NC(=O)c2nsc3ccccc23)c1")
"inactive"
>>> readout_value("O=C(CSc1nnc2scc(-c3ccc(F)cc3)n12)NCc1ccco1")
"inactive"
>>> readout_value("Cc1ccc(/C=C/C(=O)Nc2ccc([N+](=O)[O-])c(NC(=O)/C=C/c3ccc(C)o3)c2)o1")
"11.2 µM (active)"
>>> readout_value("CCc1nnc(NC(=O)c2sc3nc(C)cc(COC)c3c2N)s1")
"inactive"
>>> readout_value("Cc1cccc(C2CC(=O)Oc3c2c(=O)n(C)c2ccccc32)c1 (stereo unspecified)")
"inactive"

Query: Dear colleague, I am looking for the recorded Potency of the following compound: COc1ccc(C2Sc3ccccc3NC3=C2C(=O)c2ccccc23)c(OC)c1OC (stereo unspecified)
Reply: inactive

Query: Dear colleague, I am looking for the recorded Potency of the following compound: "COc1ccc(OC)c(NC(=O)/C=C/c2ccc(C)o2)c1"
Reply: inactive

Query: Dear colleague, I am looking for the recorded Potency of the following compound: Cc1sc(C2C(C#N)=C(N)N(c3cccc(Cl)c3)C3=C2C(=O)CCC3)cc1CN1CCOCC1 (stereo unspecified)
Reply: inactive

Query: Dear colleague, I am looking for the recorded Potency of the following compound: "COc1ccc(C(=O)/C=C/c2ccc(OC3CSC3)cc2)cc1"
Reply: inactive

Query: Dear colleague, I am looking for the recorded Potency of the following compound: CN(C(=O)c1ccc2c(c1)N(Cc1cccc(Cl)c1)C(=O)c1ccccc1S2=O)C1CCCCC1 (stereo unspecified)
Reply: inactive

Query: Dear colleague, I am looking for the recorded Potency of the following compound: Cc1cc(Cl)ccc1OCC(=O)N(Cc1ccc(N(C)C)cc1)C1CCS(=O)(=O)C1 (stereo unspecified)
Reply: inactive

Query: Dear colleague, I am looking for the recorded Potency of the following compound: CCCCNC(=O)C1CCCN(c2nnc(C)c3c(C)n(-c4ccc(Cl)cc4)nc23)C1 (stereo unspecified)
Reply: inactive

Query: Dear colleague, I am looking for the recorded Potency of the following compound: "CC(=O)Nc1ccc(Nc2c3ccccc3nc3ccccc23)cc1"
Reply: 17.8 µM (active)

Query: Dear colleague, I am looking for the recorded Potency of the following compound: "COc1cc(OC)cc(C(=O)Nc2cc3nn(-c4ccccc4)nc3cc2Cl)c1"
Reply: inactive

Query: Dear colleague, I am looking for the recorded Potency of the following compound: "CN(Cc1ccccc1)S(=O)(=O)c1ccc(F)c(C(=O)Nc2cccc(Cl)c2Cl)c1"
Reply: inactive

Query: Dear colleague, I am looking for the recorded Potency of the following compound: CCOC(=O)c1c(NC(=O)c2ccc(S(=O)(=O)N3CCCC(C)C3)cc2)sc2c1CCN(C(C)C)C2 (stereo unspecified)
Reply: inactive

Query: Dear colleague, I am looking for the recorded Potency of the following compound: "CCOC(=O)c1c(C)oc2ccc(N(C(=O)c3ccncc3)S(=O)(=O)c3ccc(CC)cc3)cc12"
Reply: inactive

Query: Dear colleague, I am looking for the recorded Potency of the following compound: "Cc1ccc2nc(COc3ccccc3NC(=O)Nc3ccc(F)c(Cl)c3)cc(=O)n2c1"
Reply: inactive
